Test system: MDCK
Experiment: Inhibition of ASM in dog MDCK cells co-expressing recombinant full length mGFP-tagged KRAS G12V mutant and mCherry-CAAX assessed as reduction in plasma membrane localization of KRAS mutant incubated for 48 hrs by confocal microscopic analysis relative to control
Assay type: cell membranes
Settings: Canis lupus familiaris
EXPERIMENTAL READOUT: Emax

[I] COc1ccc([C@@H](C)N(CC=C(c2ccccc2)c2ccccc2)CCCCN2CCN(C)CC2)cc1
[II] C=CCN(CC=C(c1ccccc1)c1ccccc1)[C@H](C)c1ccc(OC)cc1
**Query** Decide: I or II , by lowest recorded Emax. Bench note: the answer is the label of the chosen record.
**Result** II
